# Test system: CAKI-1
# testDetails: Growth inhibition of human CAKI-1 cells after 48 hrs by sulforhodamine B assay
# Format: functional
# experimentalParameters: CAKI-1, 48 h
Parameter GI50: see the listing below.
Give your result in µM as a bare value.

As a guide, the following entries are already answered.
smilesInput: CC(C)=CCC/C(C)=C/CC/C(C)=C/CC[C@]1(C)CCc2c3c(cc(C)c2O1)OCN(CCCCCCCCO)C3
observable: GI50
reportedValue: 4.07
//
smilesInput: CC(C)=CCC/C(C)=C/CC/C(C)=C/CC[C@]1(C)CCc2c3c(cc(C)c2O1)OCN(C1CCN(Cc2ccccc2)CC1)C3
observable: GI50
reportedValue: 1.6
//
smilesInput: CC(C)=CCC/C(C)=C/CC/C(C)=C/CC[C@]1(C)CCc2c3c(c(C)c(C)c2O1)OCN(CCCCCO)C3
observable: GI50
reportedValue: 5.33

Memo: CC(C)=CCC/C(C)=C/CC/C(C)=C/CC[C@]1(C)CCc2c3c(cc(C)c2O1)OCN(CCCCCO)C3 , reported GI50: 5.33

----------
growth at 10 µM by entry:
# Tested on: CAKI-1
# testDetails: Growth inhibition of human CAKI-1 cells assessed as cell growth at 10 uM after 48 hrs by sulforhodamine B assay
# Format: functional
# experimentalParameters: CAKI-1, 48 h, read-out: Activity

Entry CC(C)=CCC/C(C)=C/CC/C(C)=C/CC[C@]1(C)CCc2c3c(c(C)c(C)c2O1)OCN(CCCCCCCCCCCCO)C3 — recorded growth at 10 µM = 96.2%

According to the records, this molecule CC(C)=CCC/C(C)=C/CC/C(C)=C/CC[C@]1(C)CCc2c(CNCCc3ccc(O)cc3)c(O)c(C)c(C)c2O1 displays growth at 10 µM of 86.1%

Note to self: growth at 10 µM recorded for CC(C)=CCC/C(C)=C/CC/C(C)=C/CC[C@]1(C)CCc2c3c(cc(C)c2O1)OCN(C1CCN(Cc2ccccc2)CC1)C3 was 75.3%

----------
# Test system: RPMI-8226
# testDetails: Growth inhibition of human RPMI8226 cells after 48 hrs by sulforhodamine B assay
# Type: functional
# experimentalParameters: RPMI-8226, 48 h
observable: GI50 (µM)
Report the value in µM with no unit label.

Reported GI50 ( CC(C)=CCC/C(C)=C/CC/C(C)=C/CC[C@]1(C)CCc2c3c(cc(C)c2O1)OCN(CCc1ccc(O)cc1)C3 ) = 4.03

Sample CC(C)=CCC/C(C)=C/CC/C(C)=C/CC[C@]1(C)CCc2c3c(c(C)c(C)c2O1)OCN(CCCCCO)C3 ; GI50 observed: 9.91

Looking up CC(C)=CCC/C(C)=C/CC/C(C)=C/CC[C@]1(C)CCc2c3c(cc(C)c2O1)OCN(C1CCN(Cc2ccccc2)CC1)C3 , I see its GI50 listed as 0.324

Value of GI50 reported for the compound CC(C)=CCC/C(C)=C/CC/C(C)=C/CC[C@]1(C)CCc2c3c(c(C)c(C)c2O1)OCN(CCCCO)C3 is 5.15

----------
# testDetails: Antiproliferative activity against mouse +SA cells by MTT assay
# Format: functional, cell-based
# experimentalParameters: +SA cell
observable: IC50

smilesInput: CC(C)=CCC/C(C)=C/CC/C(C)=C/CC[C@]1(C)CCc2c3c(cc(C)c2O1)OCN(CCCCCCCCCCCCO)C3
IC50: 2000 nM

Please look at the following molecule next.
Notebook: CC(C)=CCC/C(C)=C/CC/C(C)=C/CC[C@]1(C)CCc2c3c(c(C)c(C)c2O1)OCN(CC1CCNCC1)C3 , IC50 read as 4600 nM

----------
Quick reference: GI50 of the listed items.
# Tested on: UACC-257
# testDetails: Growth inhibition of human UACC257 cells after 48 hrs by sulforhodamine B assay
# Format: functional
# experimentalParameters: UACC-257, 48 h
// note: answer is a bare numeric in µM

Assay UACC-257, sample CC(C)=CCC/C(C)=C/CC/C(C)=C/CC[C@]1(C)CCc2c3c(cc(C)c2O1)OCN(CCc1ccc(O)cc1)C3 , GI50 read: 7.33

Short answer on UACC-257 for CC(C)=CCC/C(C)=C/CC/C(C)=C/CC[C@]1(C)CCc2c3c(cc(C)c2O1)OCN(CCCCCCCCO)C3 , GI50: 0.656

Per the reported UACC-257 data, CC(C)=CCC/C(C)=C/CC/C(C)=C/CC[C@]1(C)CCc2c3c(cc(C)c2O1)OCN(CCCCO)C3 has GI50 of 11.4

----------
# Tested on: CAKI-1
# testDetails: Growth inhibition of human CAKI-1 cells assessed as cell growth at 10 uM after 48 hrs by sulforhodamine B assay
# Assay type: functional
# experimentalParameters: CAKI-1, 48 h, read-out: Activity
Please enter 1 where growth at 10 µM is greater than or equal to 30%, and 0 where it is lower.

The following compounds have reported results that may help.
smilesInput: CC(C)=CCC/C(C)=C/CC/C(C)=C/CC[C@]1(C)CCc2c3c(cc(C)c2O1)OCN(CCCCCCCCO)C3
group: 0

smilesInput: CC(C)=CCC/C(C)=C/CC/C(C)=C/CC[C@]1(C)CCc2c3c(cc(C)c2O1)OCN(CCCCCCO)C3
group: 0

smilesInput: COc1ccc(CCN2COc3c(C)c(C)c4c(c3C2)CC[C@@](C)(CC/C=C(\C)CC/C=C(\C)CCC=C(C)C)O4)cc1OC
group: 1

smilesInput: CC(C)=CCC/C(C)=C/CC/C(C)=C/CC[C@]1(C)CCc2c3c(cc(C)c2O1)OCN(CCCCCCCCCCCCO)C3
group: 1

Turning to the following compound.
## Input Assess whether reported growth at 10 µM for CC(C)=CCC/C(C)=C/CC/C(C)=C/CC[C@]1(C)CCc2c3c(c(C)c(C)c2O1)OCN(CCCCCCCCO)C3 sits at 30% or higher.
## Output 1

----------
# Tested on: MDA-MB-468
# testDetails: Growth inhibition of human MDA-MB-468 cells assessed as cell growth at 10 uM after 48 hrs by sulforhodamine B assay
# Format: functional
# experimentalParameters: MDA-MB-468, 48 h, read-out: Activity
observable: growth at 10 µM (%)
Expressed in %, but write only the number.

smilesInput: CC(C)=CCC/C(C)=C/CC/C(C)=C/CC[C@]1(C)CCc2c(CNCCc3ccc(O)cc3)c(O)c(C)c(C)c2O1
valueUnits: %
reportedValue: 104

Note to self: growth at 10 µM of CC(C)=CCC/C(C)=C/CC/C(C)=C/CC[C@]1(C)CCc2c3c(c(C)c(C)c2O1)OCN(CCCCCCO)C3 with MDA-MB-468 was -46.7

----------
# Test system: SK-MEL-28
# testDetails: Growth inhibition of human SK-MEL-28 cells assessed as cell growth at 10 uM after 48 hrs by sulforhodamine B assay
# Format: functional
# experimentalParameters: SK-MEL-28, 48 h, read-out: Activity
Measured growth at 10 µM, listed per entry.
# answer = value followed by unit

Solved entries:
smilesInput: CC(C)=CCC/C(C)=C/CC/C(C)=C/CC[C@]1(C)CCc2c3c(cc(C)c2O1)OCN(CCCCCCO)C3
growth at 10 µM: -49.6%

smilesInput: CC(C)=CCC/C(C)=C/CC/C(C)=C/CC[C@]1(C)CCc2c3c(cc(C)c2O1)OCN(CCCCO)C3
growth at 10 µM: 0.63%

smilesInput: COc1ccc(CCN2COc3cc(C)c4c(c3C2)CC[C@@](C)(CC/C=C(\C)CC/C=C(\C)CCC=C(C)C)O4)cc1OC
growth at 10 µM: -55.6%

smilesInput: CC(C)=CCC/C(C)=C/CC/C(C)=C/CC[C@]1(C)CCc2c3c(cc(C)c2O1)OCN(CCCCCO)C3
growth at 10 µM: 34.7%

smilesInput: COc1ccc(CCN2COc3c(C)c(C)c4c(c3C2)CC[C@@](C)(CC/C=C(\C)CC/C=C(\C)CCC=C(C)C)O4)cc1OC
growth at 10 µM: 93.6%

smilesInput: CC(C)=CCC/C(C)=C/CC/C(C)=C/CC[C@]1(C)CCc2c3c(cc(C)c2O1)OCN(CCc1ccc(O)cc1)C3
growth at 10 µM: -83.8%

CC(C)=CCC/C(C)=C/CC/C(C)=C/CC[C@]1(C)CCc2c3c(c(C)c(C)c2O1)OCN(CCCCO)C3 has a reported growth at 10 µM of 106%

Quick note, growth at 10 µM for CC(C)=CCC/C(C)=C/CC/C(C)=C/CC[C@]1(C)CCc2c3c(cc(C)c2O1)OCN(CCCCCCCCCCO)C3 landed at 99.9%

Form field growth at 10 µM, entry CC(C)=CCC/C(C)=C/CC/C(C)=C/CC[C@]1(C)CCc2c3c(cc(C)c2O1)OCN(CCCCCCCCO)C3 : -89.2%

Reported growth at 10 µM for COc1ccc(CCNCc2c(O)c(C)c(C)c3c2CC[C@@](C)(CC/C=C(\C)CC/C=C(\C)CCC=C(C)C)O3)cc1OC was 92.6%

The molecule identified as CC(C)=CCC/C(C)=C/CC/C(C)=C/CC[C@]1(C)CCc2c(CNCCc3ccc(O)cc3)c(O)c(C)c(C)c2O1 registered its growth at 10 µM at 93.4%

The reported growth at 10 µM of the molecule CC(C)=CCC/C(C)=C/CC/C(C)=C/CC[C@]1(C)CCc2c3c(c(C)c(C)c2O1)OCN(CCCCCCCCO)C3 was 82.9%
